Task for the reader: assign each of the following compounds its reported IC50.
assay: Inhibition of Hedgehog signaling pathway in VDR-deficient mouse C3H10T1/2 cells assessed as reduction in oxysterol-induced Gli1 mRNA expression after 24 hrs by q-PCR analysis; conditions: C3H 10T1/2, 24 h
Response body: numeric value in µM, unit text excluded.

Could you tell me which IC50 is on file for C=C1CC[C@H](O)C/C1=C/C=C1\CCC[C@]2(C)[C@@H]([C@H](C)CCCC(C)C)CC[C@@H]12 ?
4.5

May I ask what IC50 has been recorded for CCC(CC)(c1ccc(OCC(O)CO)c(C)c1)c1ccc(OCC(O)C(C)(C)C)c(C)c1 (centres undefined) ?
1.9

// lookup IC50 for C[C@H](CCCC(C)(C)O)[C@H]1CC[C@H]2[C@@H](Nc3ccc(O)cc3)CCC[C@]12C
4.9

// lookup IC50 for CC(C)CCC[C@@H](C)[C@H]1CC[C@H]2[C@@H](Nc3ccc(O)cc3)CCC[C@]12C
3.9

###

Target: Vitamin D3 receptor (Mus musculus) (UniProt P48281)
Sequence (whole entry): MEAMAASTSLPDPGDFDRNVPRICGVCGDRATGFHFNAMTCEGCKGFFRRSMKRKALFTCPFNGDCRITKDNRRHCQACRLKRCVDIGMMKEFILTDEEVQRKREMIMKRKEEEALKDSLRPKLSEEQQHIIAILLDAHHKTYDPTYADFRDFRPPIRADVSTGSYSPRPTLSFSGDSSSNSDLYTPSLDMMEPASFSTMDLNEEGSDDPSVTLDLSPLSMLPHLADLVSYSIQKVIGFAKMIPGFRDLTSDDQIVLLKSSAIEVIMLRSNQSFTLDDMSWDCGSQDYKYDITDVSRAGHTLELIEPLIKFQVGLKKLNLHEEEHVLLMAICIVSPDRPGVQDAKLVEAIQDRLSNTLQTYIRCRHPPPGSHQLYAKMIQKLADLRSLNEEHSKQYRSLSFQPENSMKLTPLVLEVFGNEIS
Assay: Activation of VDR in mouse ASZ001 cells assessed as change in Cyp24A1 mRNA expression at 5 uM after 48 hrs by q-PCR analysis relative to control
Format: cell-based
Give Activity for every item shown.

Reported Activity for C[C@H](CCCC(C)(C)O)[C@H]1CC[C@H]2[C@@H](OC(=O)c3cccc(O)c3)CCC[C@]12C : what is it?
> 30000%

// lookup Activity for C[C@H](CCCC(C)(C)O)[C@H]1CC[C@H]2[C@@H](Nc3ccc(O)cc3)CCC[C@]12C
> 30000%

Which Activity is reported for this molecule? C[C@H](CCCC(C)(C)O)[C@H]1CC[C@H]2[C@@H](Nc3cccc(O)c3)CCC[C@]12C
> 30000%
